Data provenance: ChEMBL document CHEMBL5360658

assay_notes: Solubility of the compound at pH 7
Format: physicochemical
measurement_conditions: buffer, read-out: solubility
# reported solubility; entries follow

{"columns": ["compound", "solubility"],
 "data": [
  ["Cn1ccc(CCc2ccc3c(-c4ccc(F)cc4)cc(C(N)=O)nc3c2)n1", "< 1 µM"],
  ["Cc1cnn(Cc2ccc3c(-c4ccc(F)cc4)cc(C(N)=O)nc3c2)c1", "< 2 µM"],
  ["CC1CC=C(c2cc(C(N)=O)nc3cc(CN4C(=O)CCC4=O)ccc23)CC1 (racemic)", "< 1 µM"]
]}

Exam item: For the compound NC(=O)c1cc(-c2ccc(F)cc2)c2ccc(CCc3cncnc3)cc2n1 , what solubility is on record?
Marked response: < 1 µM
